B1: CPEB3 Ribozyme (parent)
chain: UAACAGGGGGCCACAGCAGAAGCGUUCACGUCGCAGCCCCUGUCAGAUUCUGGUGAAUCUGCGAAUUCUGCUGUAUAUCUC

Variants of: B1
Test: self-cleavage, relative activity (ratio to wild type); higher = more cleavage; in vitro, sequencing
In this section, each of the variants is paired with its reported self-cleavage.
READOUT LABEL: self-cleavage

A3U A21G : 0.79
G7U U31C : 0.15
C34G U80C : 0.24

All figures here come from the RNAGym collection of RNA variant scans (doi:10.1093/nar/gkz1192).
